The reported numbers originate from patent US20260184710A1.

Target: Cbl-b (Homo sapiens)
Construct: Cbl-b-HiBit KI Jurkat Cells were purchased from Promega; host or cells: Cbl-b-HiBiT knock-in Jurkat cells
Sequence (Q13191 whole entry): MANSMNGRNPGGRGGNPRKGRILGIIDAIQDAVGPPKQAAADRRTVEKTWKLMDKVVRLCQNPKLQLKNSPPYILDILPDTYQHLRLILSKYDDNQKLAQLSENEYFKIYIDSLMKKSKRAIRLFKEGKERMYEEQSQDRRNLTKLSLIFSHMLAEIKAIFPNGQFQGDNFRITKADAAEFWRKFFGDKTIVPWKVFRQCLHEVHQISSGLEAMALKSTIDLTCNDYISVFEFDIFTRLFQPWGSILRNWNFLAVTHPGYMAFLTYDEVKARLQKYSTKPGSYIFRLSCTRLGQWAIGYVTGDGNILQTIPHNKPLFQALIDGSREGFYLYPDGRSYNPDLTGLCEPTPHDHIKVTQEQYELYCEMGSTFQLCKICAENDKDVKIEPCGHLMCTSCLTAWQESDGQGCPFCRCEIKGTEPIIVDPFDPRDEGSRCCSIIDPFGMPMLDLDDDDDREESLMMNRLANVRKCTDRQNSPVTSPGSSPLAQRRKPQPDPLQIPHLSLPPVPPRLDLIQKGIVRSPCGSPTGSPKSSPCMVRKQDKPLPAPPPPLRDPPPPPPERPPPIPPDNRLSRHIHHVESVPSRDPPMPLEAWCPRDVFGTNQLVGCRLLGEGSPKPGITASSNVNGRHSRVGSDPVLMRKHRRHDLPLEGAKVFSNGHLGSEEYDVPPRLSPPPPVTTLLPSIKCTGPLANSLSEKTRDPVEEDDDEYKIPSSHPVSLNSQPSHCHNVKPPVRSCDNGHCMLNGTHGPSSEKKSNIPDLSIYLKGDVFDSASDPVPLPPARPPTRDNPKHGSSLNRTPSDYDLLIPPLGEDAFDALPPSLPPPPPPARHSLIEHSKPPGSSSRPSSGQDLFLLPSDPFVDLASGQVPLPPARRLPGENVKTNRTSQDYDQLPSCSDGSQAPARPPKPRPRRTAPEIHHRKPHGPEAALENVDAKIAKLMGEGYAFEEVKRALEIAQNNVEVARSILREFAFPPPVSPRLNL
Test: Cbl-b Degradation Method B (Nano-Glo HiBiT lytic detection)
Assay type: cell-based
Settings: Cbl-b-HiBit KI Jurkat Cells, incubated at least 6-24 hours; maximum degradation observed
quantity-measured: Cbl-b Degredation Method B Dmax (%)

Please review the following examples before continuing.
# compound, quantity-measured, reported-measurement
rows = [
    ("Cn1cnnc1CC1(c2cccc(N3Cc4c(cc(CN5CCN(C[C@H]6CC[C@H](OC7CCN(c8cccc9c8n(C8CC8)c(=O)n9C8CCC(=O)NC8=O)CC7)CC6)CC5(C)C)cc4C(F)(F)F)C3=O)c2)CC(C#N)C1 (some centres unmarked)", "Cbl-b Degredation Method B Dmax (%)", "C (C ≤ 35)"),
    ("C[C@@H]1c2nc(N3CCC(O[C@H]4CC[C@H](CN5CCN(Cc6cc7c(c(C(F)(F)F)c6)CN(c6cccc(C8(Cc9nncn9C)CC(C#N)C8)c6)C7=O)C(C)(C)C5)CC4)CC3)ccc2C(=O)N1C1CCC(=O)NC1=O (single isomer, unassigned) [Example 307]", "Cbl-b Degredation Method B Dmax (%)", "C (C ≤ 35)"),
    ("CC(C)n1c(=O)n(C2CCC(=O)NC2=O)c2cccc(N3CCC(O[C@H]4CC[C@H](CN5CCN(Cc6cc7c(c(C(F)(F)F)c6)CN(c6cccc([C@]8(Cc9nncn9C)C[C@H](C#N)C8)c6)C7=O)CC[C@@H]5C)CC4)CC3)c21 (some centres unmarked)", "Cbl-b Degredation Method B Dmax (%)", "C (C ≤ 35)"),
    ("Cn1cnnc1CC1(c2cccc(N3Cc4c(cc(CN5CCN(C[C@H]6CC[C@H](OC7CCN(c8cccc9c8ncn9C8CCC(=O)NC8=O)CC7)CC6)CC5(C)C)cc4C(F)(F)F)C3=O)c2)CC(C#N)C1 (some centres unmarked)", "Cbl-b Degredation Method B Dmax (%)", "B (35 < B < 70)"),
    ("CC(C)n1c(=O)n(C2CCC(=O)NC2=O)c2cccc(N3CCC(CN4CCC5(CC4)CN(Cc4ccc(-c6cc7c(c(C(F)(F)F)c6)CN(c6cccc(C8(Cc9nncn9C)CC(C#N)C8)c6)C7=O)cc4)C5)CC3)c21 (centres unmarked)", "Cbl-b Degredation Method B Dmax (%)", "C (C ≤ 35)"),
    ("C[C@@H]1c2nc(N3CCC(O[C@H]4CC[C@H](CN5CCN(Cc6cc7c(c(C(F)(F)F)c6)CN(c6cccc(C8(Cc9nncn9C)CC(C#N)C8)c6)C7=O)CC5(C)C)CC4)CC3)ccc2C(=O)N1C1CCC(=O)NC1=O (single isomer, unassigned)", "Cbl-b Degredation Method B Dmax (%)", "C (C ≤ 35)"),
    ("Cc1cc(N2CCC(C(C)(C)N3CCC4(CC3)CN(c3cc5c(c(C(F)(F)F)c3)CN(c3cccc([C@]6(Cc7nncn7C)C[C@@H](C#N)C6)c3)C5=O)C4)CC2)c(F)c2c1C(=O)N([C@@H]1CCC(=O)NC1=O)C2", "Cbl-b Degredation Method B Dmax (%)", "C (C ≤ 35)"),
]

Kindly review the next compound as well.
CC(c1cc2c(c(C(F)(F)F)c1)CN(c1cccc(C3(Cc4nncn4C)COC3)c1)C2=O)N1CCN(C[C@H]2CC[C@H](OC3CCN(c4ccc5c(c4F)CN(C4CCC(=O)NC4=O)C5=O)CC3)CC2)CC1 (single isomer, unassigned) has a reported Cbl-b Degredation Method B Dmax (%) of B (35 < B < 70)

* * *

Target: Cbl-b (Homo sapiens)
Construct: Cbl-b-HiBit KI Jurkat Cells were purchased from Promega; host or cells: Cbl-b-HiBiT knock-in Jurkat cells
Assay: Cbl-b Degradation Method B (Nano-Glo HiBiT lytic detection)
Type: cell-based
Conditions: Cbl-b-HiBit KI Jurkat Cells, incubated at least 6-24 hours; half maximal degradation; read-out: Cbl-b Degredation Method B IC50
quantity-measured: DC50

# molecule, DC50
data = [
    ("Cn1cnnc1[C@]1(c2cccc(N3Cc4c(cc(CN5CCC[C@H](CN6CCN(C[C@H]7CC[C@@H](OC8CCN(c9ccc%10c(c9F)CN(C9CCC(=O)NC9=O)C%10=O)CC8)CC7)CC6)C5)cc4C(F)(F)F)C3=O)c2)C[C@H](C)C1 (stereo partly drawn)", "< 5 nM"),
    ("CC1c2nc(N3CCC(O[C@H]4CC[C@H](CN5CCC6(CCN(c7cc8c(c(C(F)(F)F)c7)CN(c7cccc([C@]9(Cc%10nncn%10C)C[C@@H](C#N)C9)c7)C8=O)C6)C5)CC4)CC3)ccc2C(=O)N1C1CCC(=O)NC1=O (stereo partly drawn)", "< 5 nM"),
    ("Cn1cnnc1CC1(c2cccc(N3Cc4c(cc(N5CCC6(CCN(c7ccc8c(c7)C(=O)N(C7CCC(=O)NC7=O)C8=O)CC6)CC5)cc4C(F)(F)F)C3=O)c2)COC1 (stereo not drawn)", "> 500 nM"),
    ("Cn1cnnc1CC1(c2cccc(N3Cc4c(cc(N5CC(C6CN(c7ccc8c(c7)C(=O)N(C7CCC(=O)NC7=O)C8=O)C6)C5)cc4C(F)(F)F)C3=O)c2)COC1 (stereo not drawn)", "> 500 nM"),
    ("COc1c(N2CCC(F)(CN3CCC4(CC3)CN(c3cc5c(c(C(F)(F)F)c3)CN(c3cccc(C6(Cc7nncn7C)COC6)c3)C5=O)C4)CC2)ccc2c1CN(C1CCC(=O)NC1=O)C2=O (stereo not drawn)", "5 to 50 nM"),
]

Shifting focus to the molecule that follows.
The molecule listed as C[C@@H]1c2nc(N3CCC(O[C@H]4CC[C@H](CN5CCN(Cc6cc7c(c(C(F)(F)F)c6)CN(c6cccc(C8(Cc9nncn9C)CC(C#N)C8)c6)C7=O)C(C)(C)C5)CC4)CC3)ccc2C(=O)N1C1CCC(=O)NC1=O (single isomer, unassigned) [Example 308] shows DC50 equal to > 500 nM

* * *

Overview of reported DC50 across a group of molecules:
Target: Cbl-b (Homo sapiens)
Construct: Cbl-b-HiBit KI Jurkat Cells were purchased from Promega; host or cells: Cbl-b-HiBiT knock-in Jurkat cells
Experiment: Cbl-b Degradation Method B (Nano-Glo HiBiT lytic detection)
Format: cell-based
Conditions: Cbl-b-HiBit KI Jurkat Cells, incubated at least 6-24 hours; half maximal degradation; read-out: Cbl-b Degredation Method B IC50

Example entries begin here.
# molecule, reported-measurement
data = [
    ("Cn1cnnc1CC1(c2cccc(-n3cc4c(C(F)(F)F)cc(CN5CCC[C@H](CN6CCC[C@H](OC7CCN(c8ccc9c(c8F)CN(C8CCC(=O)NC8=O)C9=O)CC7)C6)C5)cc4n3)c2)COC1 (stereo partly drawn) [Example 258]", "> 500 nM"),
    ("Cn1cnnc1CC1(c2cccc(N3Cc4c(cc(CN5CCC(CCC6CCN(c7ccc8c(c7)C(=O)N(C7CCC(=O)NC7=O)C8=O)CC6)CC5)cc4C(F)(F)F)C3=O)c2)COC1 (stereo not drawn) [Example 71]", "> 500 nM"),
]

Moving on to another molecule below.
Consider Cn1cnnc1CC1(c2cccc(N3Cc4c(cc(CN5CCN(C[C@H]6CC[C@H](OC7CCN(c8cccc9c8n(C8CC8)c(=O)n9C8CCC(=O)NC8=O)CC7)CC6)CC5(C)C)cc4C(F)(F)F)C3=O)c2)CC(C#N)C1 (stereo partly drawn) [Example 312] . Its measured DC50 is < 5 nM

* * *

Biological target: Cbl-b (Homo sapiens)
Construct: Cbl-b-HiBit KI Jurkat Cells were purchased from Promega; host or cells: Cbl-b-HiBiT knock-in Jurkat cells
Experiment: Cbl-b Degradation Method B (Nano-Glo HiBiT lytic detection)
Format: cell-based
Conditions: Cbl-b-HiBit KI Jurkat Cells, incubated at least 6-24 hours; half maximal degradation; read-out: Cbl-b Degredation Method B IC50
quantity-measured: DC50

Please review the following examples before continuing.
# molecule, reported-measurement
records = [
    ("Cn1cnnc1CC1(c2cccc(N3Cc4c(cc(N5CCN(CC6CCN(c7ccc8c(c7)C(=O)N(C7CCC(=O)NC7=O)C8=O)CC6)CC5)cc4C(F)(F)F)C3=O)c2)COC1 (centres unmarked)", "> 500 nM"),
    ("Cn1cnnc1CC1(c2cccc(N3Cc4c(cc(CN5CCC(N6CCN(CC7CCN(c8ccc9c(c8)C(=O)N(C8CCC(=O)NC8=O)C9=O)CC7)CC6)CC5)cc4C(F)(F)F)C3=O)c2)COC1 (centres unmarked)", "> 500 nM"),
    ("Cn1cnnc1C[C@]1(c2cccc(N3Cc4c(cc(CN5CCN(C[C@H]6CC[C@H](OC7CCN(c8ccc9c(n8)n(C)c(=O)n9C8CCC(=O)NC8=O)CC7)CC6)CC5(C)C)cc4C(F)(F)F)C3=O)c2)C[C@H](C#N)C1 (some centres unmarked)", "< 5 nM"),
    ("Cn1cnnc1CC1(c2cccc(N3Cc4c(cc(CN5CC(C6CN(c7ccc8c(c7)C(=O)N(C7CCC(=O)NC7=O)C8=O)C6)C5)cc4C(F)(F)F)C3=O)c2)COC1 (centres unmarked)", "50 to 500 nM"),
]

Input Cn1cnnc1CC1(c2cccc(N3Cc4c(cc(CN5CCC[C@H](CN6CCN(C(=O)[C@H]7CC[C@@H](OC8CCN(c9ccc%10c(c9F)CN(C9CCC(=O)NC9=O)C%10=O)CC8)CC7)CC6)C5)cc4C(F)(F)F)C3=O)c2)COC1 (some centres unmarked) . Output DC50: < 5 nM
